# Tested target: UniProt:Q9UPY5
# Protocol details: Cystine-induced glutamate release assay
# Assay type: cell-based
# Set-up: endogenous in cells; host or cells: H4 cells
# Test context: H4 cells, sodium-free HEPES buffer, 50 μM L-Cystine, 2 hours, Amplex Red glutamate readout
Quantity kind: pIC50 Cystine-induced glutamate release assay

[[record]]
compound = "Cc1cc2c(c(Cl)n1)-c1ccccc1CC(=O)N2CC(=O)Nc1ccc(C(F)(F)F)cc1 (single isomer, unassigned) [#189]"
measured_result = "D (plC50 > about 7.80)"

[[record]]
compound = "COc1cc2c(c(F)n1)-c1cccnc1C(C)C(=O)N2CC(=O)Nc1ccc(C(F)F)cc1 (single isomer, unassigned)"
measured_result = "D (plC50 > about 7.80)"


====

# Tested target: system Xc^− (Homo sapiens)
# Protocol details: [^14C]L-Cystine uptake assay
# Assay type: cell-based
# Design: endogenous in cells; host or cells: H4 cells
# Test context: H4 cells, sodium-free HEPES buffer, 0.5 μM L-[14C]Cystine and 4.5 μM L-Cystine, 1 hour at 37° C.; read-out: pIC50 [^14C] L-Cystine uptake assay (converted)
Reported IC50 values follow for various compounds

# count of solved cases: 2
[[record]]
compound = "Cc1cc2c(c(F)n1)-c1cccnc1[C@@H](C)C(=O)N2CC(=O)Nc1ccc2c(c1)CC(F)(F)C2"
quantity_kind = "IC50"
measured_result = "39.8 to 100 nM"

[[record]]
compound = "COc1nc(C)cc2c1-c1cccnc1CC(=O)N2CC(=O)Nc1ccc(C2CC2)cc1"
quantity_kind = "IC50"
measured_result = "15.8 to 39.8 nM"


Checklist item: IC50 tested on system Xc^− (Homo sapiens), entry "O=C(CN1C(=O)Cc2ncccc2-c2c1cc(N1CC3(C1)CC3(F)F)nc2F)Nc1ccc(C(F)F)cc1" , value?
15.8 to 39.8 nM

And what about the compound "O=C(CN1C(=O)Cc2ncccc2-c2cnc(Cl)cc21)Nc1ccc(C(F)(F)F)cc1" ?
100 to 501 nM

And what about the compound [2H]C([2H])([2H])C1C(=O)N(CC(=O)Nc2ccc(C(F)(F)F)cc2)c2cc(C)nc(F)c2-c2cccnc21 (centres unmarked) ?
< 15.8 nM

And what about the compound "Cc1cc2c(cc1C)N(CC(=O)Nc1ccc(Cl)c(F)c1)C(=O)Cc1cccnc1-2" ?
39.8 to 100 nM

And what about the compound CC1C(=O)N(CC(=O)Nc2ccc(C(F)(F)F)cc2)c2cn(C)c(=O)c(F)c2-c2cccnc21 (single isomer, unassigned) ?
< 15.8 nM

And what about the compound CC1C(=O)N(CC(=O)Nc2ccc(C(F)F)cc2)c2ccnc(Cl)c2-c2cccnc21 (single isomer, unassigned) ?
39.8 to 100 nM

====

# Tested target: system Xc^− (Homo sapiens, UniProt Q9UPY5)
# Protocol details: [^14C]L-Cystine uptake assay
# Format: cell-based
# Set-up: endogenous in cells; host or cells: H4 cells
# Test context: H4 cells, sodium-free HEPES buffer, 0.5 μM L-[14C]Cystine and 4.5 μM L-Cystine, 1 hour at 37° C.; read-out: pIC50 [^14C] L-Cystine uptake assay (converted)
Reported IC50 values follow for various molecules

[[record]]
molecule = "Cc1cc2c(c(F)n1)-c1cccnc1[C@@H](C)C(=O)N2CC(=O)Nc1ccc(F)c(F)c1"
measured_result = "0.0158 to 0.0398 µM"


What does the data say about its IC50? Entry: Cc1cc2c(c(=O)n1C)-c1cncnc1C(C)C(=O)N2CC(=O)Nc1ccc(C(F)F)cc1 (single isomer, unassigned)
0.0158 to 0.0398 µM

And what about the molecule COc1cc(F)c2c(c1)N(CC(=O)Nc1ccc(Cl)c(F)c1)C(=O)C(C)c1ncccc1-2 (single isomer, unassigned) ?
0.0158 to 0.0398 µM

And what about the molecule "O=C(CN1C(=O)Cc2ccccc2-c2ncc(F)cc21)Nc1ccc(C(F)(F)F)cc1" ?
0.1 to 0.501 µM

And what about the molecule "Cc1cc2c(cc1C)-n1ccnc1CC(=O)N2CC(=O)Nc1ccc(C(F)(F)F)cc1" ?
0.0398 to 0.1 µM

And what about the molecule Cc1cc2c(c(=O)n1C1CC1)-c1cccnc1C(C)C(=O)N2CC(=O)Nc1ccc(Cl)c(F)c1 (stereo not drawn) ?
0.0158 to 0.0398 µM

====

# Tested target: system Xc^− (Homo sapiens)
# Sequence (Q9UPY5 1-501): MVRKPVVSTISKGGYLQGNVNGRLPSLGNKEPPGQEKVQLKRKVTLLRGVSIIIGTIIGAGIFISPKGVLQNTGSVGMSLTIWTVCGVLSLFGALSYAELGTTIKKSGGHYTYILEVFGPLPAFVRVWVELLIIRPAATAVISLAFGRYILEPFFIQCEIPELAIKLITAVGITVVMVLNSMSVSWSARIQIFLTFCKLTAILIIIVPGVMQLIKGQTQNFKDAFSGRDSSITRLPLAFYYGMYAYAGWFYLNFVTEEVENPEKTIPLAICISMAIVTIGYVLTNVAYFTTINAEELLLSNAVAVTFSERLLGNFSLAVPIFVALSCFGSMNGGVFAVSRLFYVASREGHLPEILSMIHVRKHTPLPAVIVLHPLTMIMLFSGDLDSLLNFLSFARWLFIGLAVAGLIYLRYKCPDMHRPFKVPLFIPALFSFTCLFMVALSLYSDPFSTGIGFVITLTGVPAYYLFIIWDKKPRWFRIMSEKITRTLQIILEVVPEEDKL
# Sequence (P08195 1-529 partner): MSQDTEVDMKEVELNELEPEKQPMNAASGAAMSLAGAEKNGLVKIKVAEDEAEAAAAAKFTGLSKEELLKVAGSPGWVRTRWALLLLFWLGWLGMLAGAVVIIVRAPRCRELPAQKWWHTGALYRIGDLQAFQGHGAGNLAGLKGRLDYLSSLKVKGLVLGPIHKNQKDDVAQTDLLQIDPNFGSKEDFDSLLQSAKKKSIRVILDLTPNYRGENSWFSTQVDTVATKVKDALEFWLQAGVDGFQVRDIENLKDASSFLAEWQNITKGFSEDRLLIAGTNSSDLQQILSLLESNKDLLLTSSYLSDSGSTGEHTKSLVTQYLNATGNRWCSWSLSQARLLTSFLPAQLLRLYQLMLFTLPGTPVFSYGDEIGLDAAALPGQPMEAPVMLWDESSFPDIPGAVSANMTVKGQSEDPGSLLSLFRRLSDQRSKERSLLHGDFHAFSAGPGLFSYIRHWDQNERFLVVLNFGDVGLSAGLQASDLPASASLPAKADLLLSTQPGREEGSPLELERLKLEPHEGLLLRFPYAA
# Protocol details: Cystine-induced glutamate release assay
# Format: cell-based
# Design: endogenous in cells; host or cells: H4 cells
# Test context: H4 cells, sodium-free HEPES buffer, 50 μM L-Cystine, 2 hours, Amplex Red glutamate readout; read-out: pIC50 Cystine-induced glutamate release assay (converted)
Reported IC50 values follow for various compounds

# count of solved cases: 5
[[record]]
compound = "Cc1cc2c(c(F)n1)-c1ccnnc1CC(=O)N2CC(=O)Nc1ccc(C(F)(F)F)cc1 [#110]"
measured_result = "100 to 501 nM"

[[record]]
compound = "Cc1cc2c(c(C(F)F)n1)-c1ccccc1CC(=O)N2CC(=O)Nc1ccc(C(F)(F)F)cc1 [#56]"
measured_result = "39.8 to 100 nM"

[[record]]
compound = "CC1C(=O)N(CC(=O)Nc2ccc(Cl)c(F)c2)c2ccnc(OC(F)F)c2-c2cccnc21 (centres unmarked) [#412]"
measured_result = "39.8 to 100 nM"

[[record]]
compound = "Cc1cc2c(cc1C)N(CC(=O)Nc1ccc(C(F)(F)F)cc1)C(=O)Cc1ncccc1-2 [#23]"
measured_result = "39.8 to 100 nM"

[[record]]
compound = "CC1C(=O)N(CC(=O)Nc2ccc(C(F)F)cc2)c2cc(C3CC3C(F)(F)F)cc(F)c2-c2cccnc21 (centres unmarked) [#346]"
measured_result = "39.8 to 100 nM"


What does the data say about its IC50? Entry: Cc1cc2c(c(F)n1)-c1cccnc1[C@@H](C)C(=O)N2CC(=O)Nc1ccc(Cl)c(Cl)c1 [#150]
39.8 to 100 nM

And what about the compound Cc1cc2c(n(C)c1=O)-c1ccnn1C(C)C(=O)N2CC(=O)Nc1ccc(Cl)c(F)c1 (centres unmarked) [#353] ?
15.8 to 39.8 nM

And what about the compound Cc1cc2c(c(F)n1)-c1cccnc1[C@@H](C)C(=O)N2CC(=O)Nc1ccc2c(Cl)nccc2c1 (single isomer, unassigned) [#240] ?
15.8 to 39.8 nM

====

# Tested target: system Xc^− (Homo sapiens)
# Sequence (Q9UPY5 1-501): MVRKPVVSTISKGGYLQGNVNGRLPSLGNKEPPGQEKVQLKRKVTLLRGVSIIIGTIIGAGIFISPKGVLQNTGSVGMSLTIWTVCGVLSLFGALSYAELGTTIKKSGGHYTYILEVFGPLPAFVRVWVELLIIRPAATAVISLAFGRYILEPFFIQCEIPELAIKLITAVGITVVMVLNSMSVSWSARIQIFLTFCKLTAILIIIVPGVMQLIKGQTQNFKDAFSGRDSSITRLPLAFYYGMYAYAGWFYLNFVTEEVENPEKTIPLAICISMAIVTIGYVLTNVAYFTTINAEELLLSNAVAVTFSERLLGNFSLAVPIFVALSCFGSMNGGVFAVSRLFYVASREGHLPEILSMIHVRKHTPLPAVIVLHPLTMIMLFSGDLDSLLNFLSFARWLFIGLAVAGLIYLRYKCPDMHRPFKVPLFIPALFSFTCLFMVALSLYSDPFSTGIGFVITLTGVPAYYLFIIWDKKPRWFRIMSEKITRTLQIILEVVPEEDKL
# Sequence (P08195 1-529 partner): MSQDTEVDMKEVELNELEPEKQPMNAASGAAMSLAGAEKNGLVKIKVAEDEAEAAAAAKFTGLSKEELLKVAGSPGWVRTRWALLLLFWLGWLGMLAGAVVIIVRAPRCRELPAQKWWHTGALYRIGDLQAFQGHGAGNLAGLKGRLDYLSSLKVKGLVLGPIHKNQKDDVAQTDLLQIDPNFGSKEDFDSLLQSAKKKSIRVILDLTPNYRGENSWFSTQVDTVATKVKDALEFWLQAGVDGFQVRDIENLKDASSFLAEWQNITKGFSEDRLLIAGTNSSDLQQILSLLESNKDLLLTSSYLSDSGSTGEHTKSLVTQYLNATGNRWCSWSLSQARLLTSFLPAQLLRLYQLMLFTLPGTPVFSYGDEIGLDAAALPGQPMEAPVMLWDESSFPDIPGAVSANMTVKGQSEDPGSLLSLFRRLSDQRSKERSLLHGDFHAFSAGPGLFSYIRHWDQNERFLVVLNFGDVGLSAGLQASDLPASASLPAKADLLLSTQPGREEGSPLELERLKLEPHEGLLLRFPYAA
# Protocol details: Cystine-induced glutamate release assay
# Format: cell-based
# Design: endogenous in cells; host or cells: H4 cells
# Test context: H4 cells, sodium-free HEPES buffer, 50 μM L-Cystine, 2 hours, Amplex Red glutamate readout; read-out: pIC50 Cystine-induced glutamate release assay (converted)
Quantity kind: IC50

# count of solved cases: 3
[[record]]
compound = "CC1C(=O)N(CC(=O)Nc2ccc(C(F)F)cc2)c2cc(N3CCOCC3)nc(F)c2-c2cccnc21 (stereo not shown) [#271]"
tested_target = "system Xc^− (Homo sapiens)"
quantity_kind = "IC50"
measured_result = "15.8 to 39.8 nM"

[[record]]
compound = "O=C(CN1C(=O)Cc2ncccc2-c2c1ccnc2Cl)Nc1ccc(C(F)(F)F)cc1 [#53]"
tested_target = "system Xc^− (Homo sapiens)"
quantity_kind = "IC50"
measured_result = "100 to 501 nM"

[[record]]
compound = "CC1C(=O)N(CC(=O)Nc2ccc(Cl)c(F)c2)c2cc(Cl)cc(F)c2-c2cncnc21 (single isomer, unassigned) [#314]"
tested_target = "system Xc^− (Homo sapiens)"
quantity_kind = "IC50"
measured_result = "15.8 to 39.8 nM"


Let us move to another entry and its IC50.
What does the data say about its IC50? Entry: CC1C(=O)N(CC(=O)Nc2ccc(Cl)c(F)c2)c2ccn(C(F)F)c(=O)c2-c2cccnc21 (stereo not shown) [#366]
39.8 to 100 nM
